- Test system: CCRIS mutagenicity, Ames/micronucleus/aberration tests
- Test description: CCRIS mutagenicity studies
- Study conditions: Test System: AMES SALMONELLA TYPHIMURIUM; Strain/Indicator: TA7005; Metabolic Activation: RAT LIVER S-9, AROCLOR 1254; Method: FLUCTUATION (MICROTITER)
The source made the active and inactive calls. How the calls were made is not given here.
Allowed answers: 1 (active), 0 (inactive)

Here's what some known entries look like.
- Molecule: "O=Cc1ccccc1"
  Class name: 1
- Molecule: "CC(O)CCl (centres undefined)"
  Class name: 0
- Molecule: "Oc1cccc2cccnc12"
  Class name: 1

With those in mind, consider the next molecule.
In: Give the logged outcome of this assay for the following molecule: Oc1ccccc1
Out: 0

###

- Test system: CCRIS mutagenicity, Ames/micronucleus/aberration tests
- Test description: CCRIS mutagenicity studies
- Study conditions: Test System: AMES SALMONELLA TYPHIMURIUM; Strain/Indicator: TA100; Metabolic Activation: RAT, LIVER, S-9, AROCLOR 1254 (30%); Method: PREINCUBATION
The source made the active and inactive calls. No rule for the calls is given here.
Allowed answers: label 1 for active, label 0 for inactive

In: Give the logged outcome of this assay for the following molecule: Cc1ccc(Cl)cc1
Out: label 0

In: # repeat for CCCCC(CC)CNCC(CC)CCCC (stereo unspecified)
Out: label 0

In: # repeat for O.O.O.O.O.O.O=[N+]([O-])[O-].O=[N+]([O-])[O-].O=[N+]([O-])[O-].[La+3]
Out: label 0

In: # repeat for Cc1cccc(C#N)c1
Out: label 0

In: # repeat for Nc1c(Cl)cc([N+](=O)[O-])cc1Cl
Out: label 0

In: # repeat for Nc1ccc(N=Nc2ccccc2)cc1
Out: label 0

In: # repeat for Oc1cccc(Nc2ccccc2)c1
Out: label 0

In: # repeat for O=[N+]([O-])CCO
Out: label 0

In: # repeat for Oc1cc(Cl)c(Cl)c(Cl)c1
Out: label 0

In: # repeat for CC(Cl)Cl
Out: label 0

In: # repeat for CCCCCCCCCCCC(=O)O
Out: label 0

In: # repeat for CCN(C(=O)N(CC)c1ccccc1)c1ccccc1
Out: label 0

In: # repeat for CCC(C)COC(=O)/C=C/c1ccc(N=Cc2ccc(OC)cc2)cc1 (stereo unspecified)
Out: label 1

In: # repeat for Oc1cccc2cccnc12
Out: label 1

In: # repeat for CCCCOCCCC
Out: label 0

In: # repeat for O=[N+]([O-])c1ccc2c(c1)Cc1cccc([N+](=O)[O-])c1-2
Out: label 1

In: # repeat for N#CCc1ccccc1
Out: label 0

In: # repeat for CC(C)[N+](C)(CCOC(=O)C1c2ccccc2Oc2ccccc21)C(C)C
Out: label 0

In: # repeat for CCCCC(C=O)CC (stereo unspecified)
Out: label 0

In: # repeat for C1=C\CC/C=C\CC/1.C1=C\CC/C=C\CC/1.[Ni]
Out: label 0

In: # repeat for OCC(CO)(CBr)CBr
Out: label 0

###

- System: CCRIS mutagenicity, Ames/micronucleus/aberration tests
- Test description: CCRIS mutagenicity studies
- Study conditions: Test System: AMES SALMONELLA TYPHIMURIUM; Strain/Indicator: TA1537; Metabolic Activation: MOUSE, LIVER, S-9, AROCLOR 1254; Method: STANDARD PLATE
Activity calls are given as the source filed them. No rule for the calls is given here.
Allowed answers: 1 (yes) for active, 0 (no) for inactive

- Test smiles: "CCOc1ccc(NC(C)=O)cc1"
  Class name: "0 (no)"
- Test smiles: "CC1(C)COC1=O"
  Class name: "0 (no)"
- Test smiles: "Nc1ccc2c(c1)C(=O)c1ccccc1C2=O"
  Class name: "1 (yes)"

In: Give the logged outcome of this assay for the following compound: Nc1ccccc1
Out: 0 (no)

Data credit: PubChem BioAssay AID1259407
